study_target: T1, EGFR Fc (human, UniProt P00533 25-645)
T1 construct: also called EGFR-hFc; recombinant human EGFR-Fc
protocol_summary: ELISA, EGFR Fc coated, VHH at 10 nM
Lab note: anything with OD450 below 2 is marked true (1); values at 2 or higher are marked false (0).

binder: pgEG-SX55 (VHH, not shown: small tags and cut ends) VHH: QVQLVESGGGLVQPGGSLRLSCAGTGLIFTTYVMGWYRQAPGKQRELVAIVTNGGGTHYADFVKGRFTISRDNAKNTVSLQMNLLKPEDTAVYYCNARHLVRPGTNDYWGQGTLVTVSS
label_class: false (0)

// query Is it true that OD450 reported for pgEG5 (VHH, not shown: small tags and cut ends) VHH: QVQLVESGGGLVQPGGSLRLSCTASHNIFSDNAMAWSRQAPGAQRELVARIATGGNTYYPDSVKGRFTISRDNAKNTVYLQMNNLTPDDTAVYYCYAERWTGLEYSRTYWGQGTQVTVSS is less than 2?
// result false (0)

// query Moving on to the next binder: pgEG-SX22 (VHH, not shown: small tags and cut ends) VHH: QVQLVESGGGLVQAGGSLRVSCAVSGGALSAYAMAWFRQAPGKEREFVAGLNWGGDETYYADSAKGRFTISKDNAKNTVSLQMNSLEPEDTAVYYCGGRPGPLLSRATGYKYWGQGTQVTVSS
// result true (1)

// query What do you have for pgEG-SX52 (VHH, not shown: small tags and cut ends) VHH: QVQLVESGGGLVKAGKSLRLSCAASVSSFDTYTMGWYRQAPGKQREQVAIITPGAGTHYADSVKGRFTISRDNAKNTVYLQMSSLKLEDTAVYYCKARHRITGYDYWGQGTQVTVSS ?
// result false (0)

// query # iterate: pgEG-SX56 (VHH, not shown: small tags and cut ends) VHH: QVQLVESGGGFVQAGGSLRLSCAASGRFLSIADMDWYRRVPGKQRELVASITRAGDTALEDSVKGRFTISRDNAKNTVHLQMNSVKPEDTAVYYCRADVTRSGTPYFEVWGQGTLVTVSS
// result true (1)

// query Also, pgEG-SX39 (VHH, not shown: small tags and cut ends) VHH: QVQVAESGGGLVQAGESLRLSCTASGSISTINAVRWYRQTPGKQREFVAYISTDGGTDYADPVKGRFTISRDNAKNTWFLQMNSLKPEDTGVYMCNVVVTPYAYWGQGTQVTVSS please.
// result true (1)
